Recorded RFP signal change by entry
# procedure_text: GFP drop in mixed WT/humanized-ribosome E. coli culture – GFP/RFP fluorescence, OD600, single point, bacterial rRNA inhibitor project, primary screen (AID 720706)
# settings: E. coli WT GFP vs humanized-ribosome RFP mutants, 24 h; measured here: RFP humanized mutant strains, DMSO median 0, no signal -100, concentration not given here
Out of some 350,000 compounds screened, about 5,500 (1.6%) were called active. What follows is part of a selection rich in actives, with near analogues and random picks from the rest.

- molecule: "COc1ccc(CN2[C@H](CO)[C@@H]3c4ccccc4N(C(=O)C4CC4)C[C@@H]32)cc1"
  RFP signal change [%]: -1.21
- molecule: "CN(CC(=O)NCc1cccnc1)S(=O)(=O)c1cc(Cl)ccc1Cl"
  RFP signal change [%]: -0.601
- molecule: "COc1ccc2c3c(n(C)c2c1)[C@H](CO)NCC31CN(Cc2cc(F)ccc2F)C1"
  RFP signal change [%]: 1.51
- molecule: "COc1ccc2nc(NC(=O)NC3CCCCC3)sc2c1"
  RFP signal change [%]: 7.27
- molecule: "O=C(C[C@@H]1CC[C@@H](NC(=O)C2CCOCC2)[C@H](CO)O1)NCC1CC1"
  RFP signal change [%]: -2.58
- molecule: "Cc1ccccc1S(=O)(=O)NC(=O)C1(C)CCN1C(=O)C1(c2ccccc2)CCCC1 (stereo not given)"
  RFP signal change [%]: -0.676
- molecule: "C[C@@H]1CN([C@@H](C)CO)C(=O)c2cccc(NC(=O)c3cnccn3)c2O[C@H]1CN(C)S(=O)(=O)c1cccs1"
  RFP signal change [%]: -1.1
- molecule: "Cc1ccc(S(=O)(=O)N2CC(O)C[C@H]2C(=O)OCC(=O)Nc2ccc(N3CCOCC3)cc2)cc1C (stereo not given in full)"
  RFP signal change [%]: 2.94
- molecule: "CC1(C(=O)NS(=O)(=O)c2ccc3ccccc3c2)CCN1C(=O)C1(c2ccc(Cl)cc2)CCC1 (stereo not given)"
  RFP signal change [%]: -12.6
- molecule: "NS(=O)(=O)c1cccc(NC(=O)CSc2nc3ccccc3n2-c2ccccc2)c1"
  RFP signal change [%]: 0.431
- molecule: "COc1ccc(S(=O)(=O)Nc2ccc3c(c2)C(=O)N(C)C[C@@H](OC)[C@H](C)CN(C(=O)NC(C)C)[C@H](C)CO3)cc1"
  RFP signal change [%]: 0.485
- molecule: "CCOC(=O)N1CCN(C(=O)c2ccccc2N(Cc2ccccc2)S(=O)(=O)c2ccc(OC)cc2)CC1"
  RFP signal change [%]: 0.913
- molecule: "O=C(Nc1cc(F)ccc1F)N1CC(=O)N2[C@H](CO)[C@@H](c3ccc(-c4cccnc4)cc3)[C@@H]2C1"
  RFP signal change [%]: -3.33
- molecule: "CN(Cc1ccccc1F)C[C@H]1[C@@H](c2ccccc2)[C@@H](CO)N1S(C)(=O)=O"
  RFP signal change [%]: -1.06
- molecule: "CC(=O)N1CCC(N(C(=O)Nc2ccc(Cl)cc2)C(C)C)CC1"
  RFP signal change [%]: -0.55
- molecule: "O=C(C[C@@H]1C[C@H]2c3cc(NS(=O)(=O)c4ccc(F)cc4)ccc3O[C@H]2[C@H](CO)O1)NCCc1ccccc1"
  RFP signal change [%]: 2.06
- molecule: "C=CCN(c1ccccc1C(=O)NCC(=O)OCC)S(=O)(=O)c1ccc(C)cc1"
  RFP signal change [%]: 1.08
- molecule: "COc1ccc(-n2cnnc2SCC(=O)Nc2cccc(S(N)(=O)=O)c2)cc1"
  RFP signal change [%]: -1.5
- molecule: "COc1cccc(C#Cc2ccc([C@@H]3[C@H]4CN(C(=O)Cc5ccccc5)CC(=O)N4[C@H]3CO)cc2)c1"
  RFP signal change [%]: 27.5
- molecule: "CC(=O)C(CC(=O)N1CCCC1)C(=O)Nc1ccc(Cl)cc1 (stereo not given)"
  RFP signal change [%]: 0.378
- molecule: "O=C(NC1CCN(C(=S)Nc2ccc(Cl)cc2)CC1)C1CCCCC1"
  RFP signal change [%]: 0.251
- molecule: "Cc1ccc(C(=O)NC(=S)NCc2cccnc2)cc1"
  RFP signal change [%]: 5.91
- molecule: "CC[C@H]1CC=CC[C@@H](C)Oc2ccccc2C(=O)N(C)[C@H](Cc2ccccc2)C(=O)N1 (mixture of isomers)"
  RFP signal change [%]: -3.29
- molecule: "C[C@@H]1CN([C@@H](C)CO)C(=O)c2cc(NS(=O)(=O)c3cn(C)cn3)ccc2O[C@@H]1CN(C)Cc1ccc(C(=O)Nc2ccccc2N)cc1"
  RFP signal change [%]: 3.25
- molecule: "COc1ccc(CNC(=O)C[C@@H]2CC[C@H](NC(=O)c3cccc(F)c3)[C@H](CO)O2)cc1"
  RFP signal change [%]: 0.956
- molecule: "COCC(=O)N1CC(=O)N2[C@H](C1)[C@H](c1ccc(C#CC3CCCCC3)cc1)[C@@H]2CO"
  RFP signal change [%]: 1.49
- molecule: "CCC(=O)Nc1ccc2c(c1)C(=O)N(C)[C@@H]1CC[C@H](CC(=O)NCCc3ccncc3)O[C@@H]1CO2"
  RFP signal change [%]: -1.34
- molecule: "O=C1NCCOCc2cn(nn2)CC[C@@H]1Cc1ccccc1"
  RFP signal change [%]: -0.105
- molecule: "C[C@@H]1CN([C@@H](C)CO)S(=O)(=O)c2ccc(C#CCN(C)C)cc2O[C@@H]1CN(C)S(=O)(=O)c1cccc(F)c1"
  RFP signal change [%]: 0.409
- molecule: "Cc1ccc(-c2ccc([C@H]3[C@H]4CN(S(=O)(=O)c5cccc(F)c5)CC(=O)N4[C@H]3CO)cc2)cc1"
  RFP signal change [%]: -0.692
- molecule: "COc1ccc(C(=O)NC(=S)NC2CCCCC2)cc1"
  RFP signal change [%]: -12.9
- molecule: "CC(=O)N(C)C[C@@H]1Oc2cc(-c3cccnc3)ccc2S(=O)(=O)N([C@@H](C)CO)C[C@H]1C"
  RFP signal change [%]: -4.17
- molecule: "COc1ccc(-c2cnc3c(c2)C(=O)N([C@H](C)CO)C[C@@H](C)[C@H](CN(C)C(=O)Cc2ccncc2)O3)cc1"
  RFP signal change [%]: -0.471
- molecule: "CC1CCCC(NC(=O)COC(=O)[C@@H]2CC(O)CN2S(=O)(=O)c2ccc3c(c2)OCCO3)C1C (stereo not given in full)"
  RFP signal change [%]: -2.13
- molecule: "C[C@@H]1CN([C@H](C)CO)C(=O)Cc2cc(NC(=O)Cn3cnnn3)ccc2O[C@@H]1CN(C)S(=O)(=O)c1ccc(F)cc1"
  RFP signal change [%]: 0.611

====

# procedure_text: GFP drop in mixed WT/humanized-ribosome E. coli culture – GFP/RFP fluorescence, OD600, single point, bacterial rRNA inhibitor project, primary screen (AID 720706)
# settings: E. coli WT GFP vs humanized-ribosome RFP mutants, 24 h; measured here: OD600 growth, DMSO median 0, no signal -100
Among all 350,000 compounds or so, about 5,500 (1.6%) were called active. Many of the other results were omitted from the sample, so actives are more common in it than they were.
Recorded OD600 change by entry

- molecule: "CC12CCC(=O)C=C1CCC1C2C(O)CC2(C)C1CCC2(O)C(O)CO (centres undefined)"
  OD600 change (%): 4.56
- molecule: "CCOC(=O)CSC1=C(C#N)C(c2ccco2)C(C(=O)OCc2ccccc2)=C(C)N1 (centres undefined)"
  OD600 change (%): -14.3
- molecule: "CC(C)CNS(=O)(=O)c1ccc(CCC(=O)NCc2ccc(Cl)cc2)cc1"
  OD600 change (%): 11.2
- molecule: "O=C(C[C@@H]1CC[C@H]2[C@@H](COC[C@@H](O)CN2C(=O)c2ccc3c(c2)OCO3)O1)NC1Cc2ccccc2C1"
  OD600 change (%): -6.88
- molecule: "CN(C(=O)CN1C(=O)/C(=C/c2ccc(Cl)cc2)SC1=S)C1CCS(=O)(=O)C1 (centres undefined)"
  OD600 change (%): 11
- molecule: "CC(C(=O)NC1CCS(=O)(=O)C1)N1C(=O)/C(=C/c2ccc(Cl)cc2)SC1=S (centres undefined)"
  OD600 change (%): -15.7
- molecule: "COc1cccc(CNC(=O)[C@@H]2[C@@H](CO)[C@@H]3Cn4c(ccc(-c5ccncc5)c4=O)[C@H]2N3C(C)=O)c1"
  OD600 change (%): -2.66
- molecule: "CCOC(=O)C1(C)NC(c2ccco2)C2C(=O)N(c3ccccc3)C(=O)C21 (centres undefined)"
  OD600 change (%): 18.6
- molecule: "O=C(c1ccccc1)N1CC(=O)N2[C@@H](CO)[C@H](c3ccc(C#CC4CC4)cc3)[C@@H]2C1"
  OD600 change (%): 0.601
- molecule: "O=C(Nc1ccccc1F)N[C@H]1CC[C@@H](CCNS(=O)(=O)c2ccc(F)cc2)O[C@@H]1CO"
  OD600 change (%): -4.9
- molecule: "COc1ccccc1C(=O)Nc1ccc2c(c1)C(=O)N(C)C[C@@H](OC)[C@@H](C)CN(CC1CC1)[C@@H](C)CO2"
  OD600 change (%): -3.13
- molecule: "COc1ccc(CCNc2ncnc3c2nnn3Cc2ccccc2)cc1"
  OD600 change (%): 7.23
- molecule: "CC(=O)C12CC(C)=C(C)CC1CC1C3CCC4=CC(=O)CCC4(C)C3CCC12C (centres undefined)"
  OD600 change (%): 7.85
- molecule: "Cc1ccc(C(=O)OCC(=O)NCc2cc(C)c(O)c(C)c2)cc1S(=O)(=O)N1CCCCC1"
  OD600 change (%): -17
- molecule: "CCCSC1=C(C#N)C(c2ccccc2C)C(C(=O)OC)C(=O)N1 (centres undefined)"
  OD600 change (%): -3.33
- molecule: "O=C(Cc1ccc(Cl)cc1)NC1CCS(=O)(=O)C1 (centres undefined)"
  OD600 change (%): 1.76
- molecule: "CC(C)(C)n1ncc2c(=O)n(Cc3ccc(Cl)cc3)cnc21"
  OD600 change (%): 1.78
- molecule: "Cc1ccc(S(=O)(=O)NC(C)C(=O)NCc2ccc(Cl)cc2)cc1 (centres undefined)"
  OD600 change (%): -10.8
- molecule: "CC(C)(C)[S@@](=O)N1Cc2cc(C(=O)O)nc(-c3cccc(-c4cccc(F)c4)c3)c2[C@H]1CCO"
  OD600 change (%): 5.04
